Every entry's value here was drawn from patent US8058285B2.

Target: PDE-4A (Homo sapiens)
pIC50: −log10 of the molar value.
Each entry below carries its reported pIC50.

CCOc1nc(N2CCNCC2)nc2c1sc1nc(-c3ccc(F)cc3)cc(C)c12; 7.30 to 8.70
CCOc1nc(N2CCNCC2)c2sc3nc(C)cc(-c4ccccc4)c3c2n1; 7.30 to 8.70

Consider the record given below.
The recorded pIC50 for CCOc1nc(N2CCNCC2)nc2c1sc1nc(-c3cccs3)cc(C)c12 is 7.30 to 8.70

---

Counter-ions that a name gives are not always drawn.
Record type: IC50 measurement. Applies to: PDE-4A (Homo sapiens, UniProt P27815)

# annotated cases, reported IC50 shown
CCOc1nc(N2CCNCC2)nc2c1sc1nc(-c3ccc(-c4ccc(C(=O)O)cc4)cc3)nc(C)c12 [sodium salt]; 2 to 50 nM
CCOc1nc(N2CCNCC2)nc2c1sc1nc(-c3ccc(-c4ccc(N)cc4)cc3)nc(C)c12; < 2 nM
CCOc1nc(N2CCNCC2)nc2c1sc1nc(-c3cc(OC)c(OC)c(OC)c3)cc(C(F)(F)F)c12; 2 to 50 nM
CCOc1nc(N2CCNCC2)nc2c1sc1nc(-c3ccc(-c4cccc(N)c4)cc3)nc(C)c12; < 2 nM
CCOc1nc(N2CCNCC2)nc2c1sc1nc(C(C)C)cc(C(C)C)c12; 2 to 50 nM
CCOc1nc(N2CCNCC2)nc2c1sc1nc(-c3ccc(Cl)cc3)cc(C(F)F)c12; 2 to 50 nM
CCOc1nc(N2CCNCC2)nc2c1sc1nc(-c3ccc(-c4cccc(C(=O)O)c4)cc3)nc(C)c12 [potassium salt]; 2 to 50 nM
CCOc1nc(N2CCNCC2)nc2c1sc1nc(-c3ccc(-c4ccc(OC)c(OC)c4)cc3)nc(C)c12; < 2 nM

Next, consider the following compound.
IC50 reported for this compound Cc1cc(-c2ccccc2)nc2sc3c(OCCO)nc(N4CCNCC4)nc3c12 : 2 to 50 nM

---

melting point values by entry

See these solved cases before continuing.
CCOc1nc(N2CCNCC2)nc2c1sc1nc(-c3ccc(C(O)CO)cc3)nc(C)c12 (centres unmarked); > 300 °C
CCOc1nc(N2CCNCC2)c2sc3nc(-c4ccccc4)nc(C)c3c2n1; > 310 °C
C/C=C/C=C/C(O)c1ccc(-c2nc(C)c3c(n2)sc2c(OCC)nc(N4CCNCC4)nc23)cc1 (centres unmarked); 149 to 150 °C
CCOc1nc(N2CCNCC2)c2oc3nc(-c4ccccc4)cc(C)c3c2n1; 175 °C
CCSc1nc(N2CCNCC2)c2sc3nc(-c4ccccc4)cc(C)c3c2n1; 150 to 154 °C
CCS(=O)(=O)c1nc(N2CCNCC2)c2sc3nc(-c4ccccc4)cc(C)c3c2n1; 190 °C (dec.)
CCOc1nc(N2CCNCC2)nc2c1oc1nc(-c3ccccc3)cc(C)c12; 131 to 132 °C

Now consider a different molecule.
# melting point of C=Cc1ccc(-c2nc(C)c3c(n2)sc2c(OCC)nc(N4CCNCC4)nc23)cc1 = 165 to 166 °C

---

Form: system (PDE-4A (Homo sapiens, UniProt P27815)), quantity (IC50), values below.

Answered cases to consult:
CCOc1nc(N2CCNCC2)nc2c1sc1nc(-c3ccc(NC(=O)OC)cc3)cc(C(F)(F)F)c12; < 2 nM
CCOc1nc(N2CCNCC2)c2sc3nc(-c4cccs4)cc(C)c3c2n1; 2 to 50 nM
CCOc1nc(N2CCNCC2)nc2c1sc1nc(-c3ccc(N4CCOCC4)cc3)cc(C(F)(F)F)c12; 2 to 50 nM
C=Cc1ccc(-c2nc(C)c3c(n2)sc2c(OCC)nc(N4CCNCC4)nc23)cc1; 2 to 50 nM
CCOc1nc(N2CCNCC2)nc2c1sc1nc(C)c(Cc3ccc(N)cc3)c(C)c12; 2 to 50 nM

The recorded IC50 for CCOc1nc(N2CCNCC2)nc2c1sc1nc(-c3cccc([N+](=O)[O-])c3)cc(C(F)(F)F)c12 is < 2 nM

IC50 measured on CCOc1nc(N2CCNCC2)nc2c1sc1nc(-c3ccc(-c4ccn(C(=O)OC(C)(C)C)c4)cc3)nc(C)c12 = 2 to 50 nM

get_value(item= CCOc1nc(N2CCNCC2)nc2c1sc1nc(-c3ccc(Cl)cc3)cc(CC)c12 , readout=IC50) returns 2 to 50 nM

Record CCOc1nc(N2CCNCC2)nc2c1sc1nc(-c3ccc4c(c3)OCO4)cc(C(F)(F)F)c12 . Reported IC50: < 2 nM

The compound identified as CCOc1nc(N2CCNCC2)nc2c1sc1nc(-c3ccccc3)cc(-c3ccccc3)c12 registered its IC50 at 2 to 50 nM

Notebook: CCOc1ccc(-c2cc(CC)c3c(n2)sc2c(N4CCNCC4)nc(OCC)nc23)cc1 , IC50 read as < 2 nM

Reported IC50 for CCOc1nc(N2CCNCC2)nc2c1sc1nc(-c3ccc(NC(=O)c4cccnc4)cc3)cc(C(F)(F)F)c12 was < 2 nM

For this compound ( CCOc1nc(N2CCNCC2)c2sc3nc(-c4ccccc4)c4c(c3c2n1)CCCC4 ), measured IC50 is 2 to 50 nM

// sample CCOc1nc(N2CCNCC2)nc2c1sc1nc(-c3ccc(Oc4ccccc4)cc3)nc(C)c12 , its IC50 was < 2 nM

Please fill in: IC50 reported for CCOc1nc(N2CCNCC2)nc2c1sc1nc(-c3ccc(SC)cc3)cc(CC)c12 = < 2 nM

For CCOc1nc(N2CCNCC2)nc2c1sc1nc(Cc3ccccc3)nc(C)c12 the compound record lists IC50 as 2 to 50 nM

Entry under test: CCOc1nc(N2CCNCC2)nc2c1sc1nc(N3CCSCC3)cc(C)c12 . Its IC50 was 2 to 50 nM

So, CCOc1nc(N2CCNCC2)c2sc3nc(N4CCOCC4)cc(C)c3c2n1 ? Its IC50 was 2 to 50 nM

// sample CCOc1nc(N2CCNCC2)nc2c1sc1nc(-c3ccc(-n4cccn4)cc3)cc(CC)c12 , its IC50 was < 2 nM

Notebook: CCOC(=O)c1ccc(-c2ccc(-c3nc(C)c4c(n3)sc3c(OCC)nc(N5CCNCC5)nc34)cc2)cc1 , IC50 read as 2 to 50 nM

IC50 measured on CCOc1nc(N2CCNCC2)c2oc3nc(-c4ccccc4)cc(C)c3c2n1 = 2 to 50 nM

Quick note, IC50 for CCOc1nc(N2CCNCC2)nc2c1sc1nc(-c3ccc(C(C)(C)C)cc3)nc(C)c12 landed at 2 to 50 nM

Recorded result, CCOc1nc(N2CCNCC2)nc2c1sc1nc(-c3ccc(SC)cc3)cc(C)c12 , IC50: 2 to 50 nM

The recorded IC50 for entry CCCOc1nc(N2CCNCC2)nc2c1sc1nc(-c3ccccc3)cc(C)c12 equals 2 to 50 nM

# compound CCOc1nc(N2CCNCC2)nc2c1sc1nc(-c3ccc(C)cc3)cc(CC)c12 ; its IC50 = < 2 nM

IC50 reported for this compound CCOc1nc(N2CCNCC2)nc2c1sc1nc(-c3cc[n+]([O-])cc3)cc(C(F)(F)F)c12 : 2 to 50 nM

---

Molecular target: PDE-4A (Homo sapiens, UniProt P27815)
Construct: PDE-4A catalytic domain comprising amino acids 342-704; made in house; host or cells: Escherichia coli
Sequence (P27815 342-704): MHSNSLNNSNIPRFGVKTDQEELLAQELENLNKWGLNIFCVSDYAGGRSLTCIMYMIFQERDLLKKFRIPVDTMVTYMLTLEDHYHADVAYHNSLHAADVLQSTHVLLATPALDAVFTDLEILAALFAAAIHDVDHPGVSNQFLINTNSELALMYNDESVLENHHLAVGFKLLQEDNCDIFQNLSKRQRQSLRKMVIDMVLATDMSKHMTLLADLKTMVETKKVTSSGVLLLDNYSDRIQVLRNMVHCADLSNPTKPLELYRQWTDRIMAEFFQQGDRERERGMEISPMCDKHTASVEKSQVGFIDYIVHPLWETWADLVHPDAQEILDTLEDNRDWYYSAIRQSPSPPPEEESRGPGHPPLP
Experiment: PDE-4A inhibitory assay (SPA)
Type: biochemical
pIC50: −log10 of the molar value.
Measured Endpoint: pIC50

Record CCOc1nc(N2CCNCC2)nc2c1sc1nc(N3CCOCC3)cc(-c3ccccc3)c12 , field pIC50: 7.30 to 8.70

pIC50 reported for this compound CCOc1nc(N2CCNCC2)nc2c1sc1nc(-c3ccc(-c4ccncc4)cc3)nc(C)c12 : > 8.70

Memo: CCOc1nc(N2CCNCC2)nc2c1sc1nc(-c3ccc(C(N)=NO)cc3)cc(C(F)(F)F)c12 [bistrifluoroacetate] , reported pIC50: > 8.70

Value of measured pIC50 for the entry CCOc1nc(N2CCNCC2)nc2c1sc1nc(N3CCN(c4ccccc4)CC3)cc(CC)c12 : 7.30 to 8.70

// recorded pIC50 for CCOc1nc(N2CCNCC2)nc2c1sc1nc(-c3ccncc3)cc(C(F)(F)F)c12 : 7.30 to 8.70

---

This document collects IC50 values reported for PDE-4A (Homo sapiens, UniProt P27815).
Structures can show the parent of a compound that is named as a salt.

CCOc1nc(N2CCNCC2)c2sc3nc(-c4ccc5c(c4)OCCO5)cc(CC)c3c2n1; < 2 nM
CCOc1nc(N2CCNCC2)nc2c1sc1nc(N3CCOCC3)c3c(c12)CCN(C)C3; 2 to 50 nM

Quick note, IC50 for CCOc1nc(N2CCNCC2)nc2c1sc1nc(-c3ccc(-c4ccc(C(=O)O)cc4N)cc3)nc(C)c12 [sodium salt] landed at 2 to 50 nM

The recorded IC50 for entry CCOc1nc(N2CCNCC2)nc2c1sc1nc(-c3ccc(-n4cccc4)cc3)cc(C(F)(F)F)c12 equals < 2 nM

Record summary for CCOc1nc(N2CCNCC2)nc2c1sc1nc(N3CCOCC3)cc(C)c12 : reported IC50 = 2 to 50 nM

The compound listed as CCOc1nc(N2CCNCC2)nc2c1sc1nc(N3CCOCC3)c3c(c12)CCC3 shows IC50 equal to 2 to 50 nM

Kindly note the recorded IC50 for CCOc1nc(N2CCNCC2)c2sc3nc(C)c(Cc4ccc([N+](=O)[O-])cc4)c(C)c3c2n1 , which is 2 to 50 nM

Reported IC50 ( CCOc1nc(N2CCNCC2)nc2c1sc1nc(-c3ccc(I)cc3)cc(CC)c12 ) = < 2 nM

Briefly, IC50 measured for CCOc1nc(N2CCNCC2)nc2c1sc1nc(-c3ccccc3)c3c(c12)CCCC3 : 2 to 50 nM
